Some binders, each annotated with its measured Kd.
system: T1, EsCas13d, nuclease-dead (Eubacterium siraeum, UniProt B0MS50, R295A;H300A;R849A;H854A)
T1 sequence: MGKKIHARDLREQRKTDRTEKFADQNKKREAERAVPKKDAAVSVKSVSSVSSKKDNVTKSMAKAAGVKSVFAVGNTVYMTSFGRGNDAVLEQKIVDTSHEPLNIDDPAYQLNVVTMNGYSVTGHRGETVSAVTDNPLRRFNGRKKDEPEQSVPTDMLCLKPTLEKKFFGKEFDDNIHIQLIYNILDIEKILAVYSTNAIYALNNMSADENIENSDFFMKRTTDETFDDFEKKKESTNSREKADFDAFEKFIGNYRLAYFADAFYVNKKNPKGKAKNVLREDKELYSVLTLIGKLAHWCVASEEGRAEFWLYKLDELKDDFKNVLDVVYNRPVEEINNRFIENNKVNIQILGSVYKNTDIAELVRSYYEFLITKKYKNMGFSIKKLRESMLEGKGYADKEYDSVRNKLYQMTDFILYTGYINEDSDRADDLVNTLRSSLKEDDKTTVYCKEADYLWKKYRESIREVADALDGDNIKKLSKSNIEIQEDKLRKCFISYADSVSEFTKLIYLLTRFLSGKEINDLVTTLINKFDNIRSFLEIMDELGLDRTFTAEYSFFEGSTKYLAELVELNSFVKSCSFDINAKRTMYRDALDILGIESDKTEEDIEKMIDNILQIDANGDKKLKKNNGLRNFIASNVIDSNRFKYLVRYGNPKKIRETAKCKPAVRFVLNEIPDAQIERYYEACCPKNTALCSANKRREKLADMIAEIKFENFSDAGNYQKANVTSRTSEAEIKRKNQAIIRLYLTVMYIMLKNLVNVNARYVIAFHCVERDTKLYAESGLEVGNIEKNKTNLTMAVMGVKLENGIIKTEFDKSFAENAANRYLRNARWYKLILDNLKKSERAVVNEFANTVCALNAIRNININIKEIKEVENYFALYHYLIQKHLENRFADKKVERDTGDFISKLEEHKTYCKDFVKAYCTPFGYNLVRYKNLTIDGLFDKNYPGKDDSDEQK
assay: crRNA (strand 1, pre-loaded); Mg2+; 40 mM Tris-HCl pH 7.5, 150 mM NaCl, 6 mM MgCl2, 1 mM DTT, 0.1% Tween-20, 0.2 mg/ml BSA; 25 C; 10 min per concentration, then washed
test-context: tags: His6-TwinStrep-SUMO cleaved; N-terminal SNAP kept (SNAP-Surface 488); label: 3' end held by stalled T7 RNA polymerase
Give just the numeric value; nM need not be written.

Task: Give the value of Kd reported for the following: target 3 U8A (mixed) RNA 1: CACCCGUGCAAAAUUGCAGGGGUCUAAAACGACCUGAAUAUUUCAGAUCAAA RNA 2: GGGAAUGGAUCCACAUCUACGAAUUCGUUUUUGAUCUGAAAUAAUCAGGUCUGCAGAUCGGAAGAGCACACGU
Result: 58.5

Task: Give Kd for the following binder: target 2 MT 5'PFS ACU 3'PFS AAC (mixed) RNA 1: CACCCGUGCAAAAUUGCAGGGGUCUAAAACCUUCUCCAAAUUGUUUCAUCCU RNA 2: GGGAAUGGAUCCACAUCUACGAAUUCACUAGGAUGAAACAAUUUGGAGAAGAACAGAUCGGAAGAGCACACGU
Result: 5.7

These data points were gathered from paper PMC10786891.
